Target: Bromodomain and PHD finger-containing protein 3 (Homo sapiens, UniProt Q9ULD4)
Sequence (Q9ULD4 whole entry): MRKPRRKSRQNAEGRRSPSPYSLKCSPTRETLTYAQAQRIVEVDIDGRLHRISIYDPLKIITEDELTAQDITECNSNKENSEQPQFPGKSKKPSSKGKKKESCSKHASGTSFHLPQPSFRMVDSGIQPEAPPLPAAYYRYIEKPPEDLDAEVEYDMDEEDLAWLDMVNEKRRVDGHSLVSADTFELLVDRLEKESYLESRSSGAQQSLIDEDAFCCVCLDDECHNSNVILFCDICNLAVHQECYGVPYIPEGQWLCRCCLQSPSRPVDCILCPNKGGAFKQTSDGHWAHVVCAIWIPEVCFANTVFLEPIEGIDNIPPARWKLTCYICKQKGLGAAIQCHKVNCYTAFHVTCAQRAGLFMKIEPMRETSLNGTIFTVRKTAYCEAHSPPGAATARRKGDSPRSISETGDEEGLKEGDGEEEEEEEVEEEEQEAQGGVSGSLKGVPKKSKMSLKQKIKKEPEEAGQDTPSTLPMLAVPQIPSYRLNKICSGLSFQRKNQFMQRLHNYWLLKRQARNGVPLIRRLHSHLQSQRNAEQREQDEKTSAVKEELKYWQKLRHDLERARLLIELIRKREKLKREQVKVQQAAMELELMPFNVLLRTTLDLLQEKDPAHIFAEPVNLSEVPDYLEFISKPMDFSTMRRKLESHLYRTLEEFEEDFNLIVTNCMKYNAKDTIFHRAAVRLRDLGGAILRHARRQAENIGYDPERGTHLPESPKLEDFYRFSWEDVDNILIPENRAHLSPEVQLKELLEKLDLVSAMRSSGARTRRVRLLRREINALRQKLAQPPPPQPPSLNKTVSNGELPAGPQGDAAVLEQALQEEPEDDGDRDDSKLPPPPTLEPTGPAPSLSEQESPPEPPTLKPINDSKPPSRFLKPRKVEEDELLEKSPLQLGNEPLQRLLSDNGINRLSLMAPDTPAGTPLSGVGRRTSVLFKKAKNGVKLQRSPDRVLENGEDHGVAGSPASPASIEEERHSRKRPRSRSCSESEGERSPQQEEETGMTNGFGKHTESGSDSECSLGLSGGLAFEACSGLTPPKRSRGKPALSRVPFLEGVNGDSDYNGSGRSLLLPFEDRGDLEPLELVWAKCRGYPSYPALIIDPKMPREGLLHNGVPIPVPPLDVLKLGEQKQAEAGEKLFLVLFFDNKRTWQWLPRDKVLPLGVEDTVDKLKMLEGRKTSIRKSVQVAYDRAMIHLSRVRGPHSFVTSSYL
Assay: Inhibition of human BRPF3 expressed in Escherichia coli BL21 after 1 hr by BROMOscan assay
// IC50 lookup, one value per entry
Hi! Could you send only the number? It should be in nM, unit omitted.

Would you please look over these solved cases?
smiles=COc1cc2c(cc1NS(=O)(=O)c1ccc(C#N)cc1)c(C)cc(=O)n2C measure=IC50 value=9300
smiles=COc1ccccc1C(=O)Nc1cc2cc(C)c(=O)n(C)c2cc1N1CCCC1 measure=IC50 value=12000
smiles=Cn1c(=O)ccc2cc(NS(=O)(=O)c3ccc(C#N)c(Cl)c3)ccc21 measure=IC50 value=2300
smiles=Cn1c(=O)ccc2cc(NS(=O)(=O)c3ccc(C#N)cc3)ccc21 measure=IC50 value=1000

Please examine the following record next.
### Prompt I'm curious: which IC50 was measured for Cc1cc2cc(NS(=O)(=O)c3ccc(C#N)cc3)ccc2n(C)c1=O tested on Bromodomain and PHD finger-containing protein 3 (Homo sapiens, UniProt Q9ULD4)?
### Response 260
